- Test details: AUC (0 to t) in Sprague-Dawley rat at 20 mg/kg, po by LC-MS/MS method
- Assay type: ADME, organism-based
- Test parameters: in vivo
Assay readout: AUC(0-t) (ng·h/mL)
Number only, in ng·h/mL; omit the unit.

Let me know recorded AUC(0-t) for Cc1n[nH]c2ccc(-c3cc(N[C@@H](CO)c4ccccc4)cnc3-c3cc(F)ccc3O)cc12 , thanks. 16600

###

Recorded pIC50, one value per entry.
- Study target: Insulin-like growth factor 1 receptor (Homo sapiens)
- Sequence (P08069 31-736 limits assumed): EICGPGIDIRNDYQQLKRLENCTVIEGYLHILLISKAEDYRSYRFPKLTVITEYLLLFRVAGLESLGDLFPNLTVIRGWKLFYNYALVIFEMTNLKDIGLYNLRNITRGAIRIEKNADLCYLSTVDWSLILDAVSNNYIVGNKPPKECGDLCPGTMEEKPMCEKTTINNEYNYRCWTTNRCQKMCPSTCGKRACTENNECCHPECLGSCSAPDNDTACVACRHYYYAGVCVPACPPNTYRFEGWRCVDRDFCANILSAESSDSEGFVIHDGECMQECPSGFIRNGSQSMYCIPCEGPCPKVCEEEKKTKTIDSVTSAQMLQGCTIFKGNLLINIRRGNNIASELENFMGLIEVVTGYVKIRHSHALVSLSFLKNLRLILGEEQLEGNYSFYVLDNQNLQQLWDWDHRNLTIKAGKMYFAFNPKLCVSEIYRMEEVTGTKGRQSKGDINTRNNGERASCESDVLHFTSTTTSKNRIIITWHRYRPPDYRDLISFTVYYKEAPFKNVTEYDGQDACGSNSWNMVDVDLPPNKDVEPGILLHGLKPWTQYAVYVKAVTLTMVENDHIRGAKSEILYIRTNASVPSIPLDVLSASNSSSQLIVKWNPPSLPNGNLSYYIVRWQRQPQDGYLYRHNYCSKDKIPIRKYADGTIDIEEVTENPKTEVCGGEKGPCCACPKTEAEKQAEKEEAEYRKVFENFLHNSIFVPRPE
- Sequence (P08069 741-1367 limits assumed): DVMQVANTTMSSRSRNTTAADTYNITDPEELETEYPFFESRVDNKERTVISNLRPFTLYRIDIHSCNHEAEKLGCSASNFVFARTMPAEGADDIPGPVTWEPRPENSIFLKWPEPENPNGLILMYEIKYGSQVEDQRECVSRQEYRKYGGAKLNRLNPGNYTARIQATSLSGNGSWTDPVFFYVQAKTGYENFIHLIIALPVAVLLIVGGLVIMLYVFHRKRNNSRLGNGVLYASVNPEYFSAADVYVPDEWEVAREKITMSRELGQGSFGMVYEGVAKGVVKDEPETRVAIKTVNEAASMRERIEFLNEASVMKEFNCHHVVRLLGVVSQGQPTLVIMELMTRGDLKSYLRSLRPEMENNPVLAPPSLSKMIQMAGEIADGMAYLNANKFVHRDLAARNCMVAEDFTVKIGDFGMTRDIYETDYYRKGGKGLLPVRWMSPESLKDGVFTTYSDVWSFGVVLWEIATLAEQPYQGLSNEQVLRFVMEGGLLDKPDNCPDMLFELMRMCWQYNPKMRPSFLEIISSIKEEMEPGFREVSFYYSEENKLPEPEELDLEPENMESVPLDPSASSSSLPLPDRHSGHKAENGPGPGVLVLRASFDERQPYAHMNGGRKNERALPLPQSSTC
- Test details: Inhibition of recombinant IGF1R (unknown origin) using poly (Glu,Tyr) 4:1 as substrate after 60 mins by ELISA
pIC50: −log10 of the molar value.

Below: 3 compounds and their reported pIC50.
{"Mol smiles": "Cc1n[nH]c2ccc(-c3cc(N[C@@H](CO)c4ccccc4)cnc3-c3ccc(F)cc3O)cc12", "pIC50": "< 6.00"}
{"Mol smiles": "Cc1n[nH]c2ccc(-c3cc(N[C@@H](CO)c4ccccc4)cnc3-c3cc(Cl)ccc3O)cc12", "pIC50": "< 7.00"}
{"Mol smiles": "Cc1n[nH]c2ccc(-c3cc(N[C@@H](CO)c4ccccc4)cnc3-c3cc(F)ccc3O)cc12", "pIC50": "< 6.00"}

Let us examine a further case.
Let me know recorded pIC50 for OC[C@H](Nc1cnc(-c2cc(Cl)ccc2O)c(-c2ccc3cnccc3c2)c1)c1ccccc1 , thanks. < 6.00

Source listed as ChEMBL document CHEMBL4017490.
